test: Selectivity index, ratio of CC50 for human MT2 cells to EC50 for HIV1 3B; type: toxicity, cell-based; conditions: read-out: Ratio CC50/EC50
Quick rule: selectivity ratio of at least 2 means Fulfilled, below that means Not fulfilled.

- O=C1CSC(=S)N1c1cccc(C(F)(F)F)c1: Not fulfilled
- COC(=O)c1ccc(-c2noc(CSC#N)n2)cc1: Fulfilled
- Cc1ccc(C)n1-c1ccc(CC(=O)O)cc1: Fulfilled
- O=C(O)c1cccc(N2C(=O)CSC2=S)c1: Not fulfilled
- N#CSCc1nc(-c2ccc(C(=O)O)cc2)no1: Fulfilled
- COC(=O)c1ccc(-n2c(C)ccc2C)cc1O: Not fulfilled
- COC(=O)c1ccc(N2C(=O)C=CC2=O)cc1O: Not fulfilled
- O=C1CSC(=S)N1c1ccc(O)cc1: Fulfilled
- O=C(O)c1ccc(-c2noc(CBr)n2)cc1: Not fulfilled
- Cc1ccc(C)n1-c1ccc(Cl)c(C(=O)O)c1: Fulfilled
- O=C(O)c1cc(N2C(=O)CSC2=S)ccc1Cl: Not fulfilled
